- EXPERIMENT NOTES: CD secondary structure of GOLPH3 proteins (BestSel fits)
- Assay type: physicochemical, human
- TEST CONDITIONS: 10 μM, 100 mM NaCl, 50 mM Tris pH 7.4, 1 mM TCEP, 20 °C
Assign % turn to each entry below.
Reply with the number, then its unit.

Worked set:
MOLECULE: D247R/D258R/D262R: recombinant GOLPH3 triple mutant D247R/D258R/D262R (protein, UniProt Q9H4A6 1-298, looked up, variant D247R D258R D262R) Golgi phosphoprotein 3: MTSLTQRSSGLVQRRTEASRNAADKERAAGGGAGSSEDDAQSRRDEQDDDDKGDSKETRLTLMEEVLLLGLKDREGYTSFWNDCISSGLRGCMLIELALRGRLQLEACGMRRKSLLTRKVICKSDAPTGDVLLDEALKHVKETQPPETVQNWIELLSGETWNPLKLHYQLRNVRERLAKNLVEKGVLTTEKQNFLLFDMTTHPLTNNNIKQRLIKKVQEAVLDKWVNDPHRMDRRLLALIYLAHASRVLENAFAPLLREQYRLATKRVRQLLDLDPEVECLKANTNEVLWAVVAAFTK
% turn: 15%
--
MOLECULE: D247A: GOLPH3 mutant D247A; recombinant in biophysics, transfected construct in cells (protein, UniProt Q9H4A6 1-298, looked up, variant D247A) Golgi phosphoprotein 3: MTSLTQRSSGLVQRRTEASRNAADKERAAGGGAGSSEDDAQSRRDEQDDDDKGDSKETRLTLMEEVLLLGLKDREGYTSFWNDCISSGLRGCMLIELALRGRLQLEACGMRRKSLLTRKVICKSDAPTGDVLLDEALKHVKETQPPETVQNWIELLSGETWNPLKLHYQLRNVRERLAKNLVEKGVLTTEKQNFLLFDMTTHPLTNNNIKQRLIKKVQEAVLDKWVNDPHRMDRRLLALIYLAHASAVLENAFAPLLDEQYDLATKRVRQLLDLDPEVECLKANTNEVLWAVVAAFTK
% turn: 12%
--
MOLECULE: D247R: recombinant GOLPH3 mutant D247R (protein, UniProt Q9H4A6 1-298, looked up, variant D247R) Golgi phosphoprotein 3: MTSLTQRSSGLVQRRTEASRNAADKERAAGGGAGSSEDDAQSRRDEQDDDDKGDSKETRLTLMEEVLLLGLKDREGYTSFWNDCISSGLRGCMLIELALRGRLQLEACGMRRKSLLTRKVICKSDAPTGDVLLDEALKHVKETQPPETVQNWIELLSGETWNPLKLHYQLRNVRERLAKNLVEKGVLTTEKQNFLLFDMTTHPLTNNNIKQRLIKKVQEAVLDKWVNDPHRMDRRLLALIYLAHASRVLENAFAPLLDEQYDLATKRVRQLLDLDPEVECLKANTNEVLWAVVAAFTK
% turn: 10%

Moving on to another molecule below.
stdin: # input molecule: GOLPH3-4G: mutant F194G/L195G/L196G/F197G with improved solubility (protein) MTSLTQRSSGLVQRRTEASRNAADKERAAGGGAGSSEDDAQSRRDEQDDDDKGDSKETRLTLMEEVLLLGLKDREGYTSFWNDCISSGLRGCMLIELALRGRLQLEACGMRRKSLLTRKVICKSDAPTGDVLLDEALKHVKETQPPETVQNWIELLSGETWNPLKLHYQLRNVRERLAKNLVEKGVLTTEKQNGGGGDMTTHPLTNNNIKQRLIKKVQEAVLDKWVNDPHRMDRRLLALIYLAHASDVLENAFAPLLDEQYDLATKRVRQLLDLDPEVECLKANTNEVLWAVVAAFTK ; wanted: its % turn
stdout: 15%
